# test description: K+ / Na+ ratio in HF(Human foreskin fibroblasts) cells
# Assay type: functional
observable: K+/Na+ ratio

[[record]]
molecule = "COc1ccc(CCN(C)CCCC(C#N)(c2ccc(OC)c(OC)c2)C(C)C)cc1OC.Oc1ccc(C2(c3ccc(O)cc3)c3ccccc3-c3cc(O)ccc32)cc1 (stereo not given)"
observable = "K+/Na+ ratio"
measured_result = 1.3

[[record]]
molecule = "COc1ccc(CCN(C)CCCC(C#N)(c2ccc(OC)c(OC)c2)C(C)C)cc1OC.Oc1ccc(C2(c3ccc(O)cc3)c3ccccc3-c3ccc(O)cc32)cc1 (stereo not given)"
observable = "K+/Na+ ratio"
measured_result = 0.71

[[record]]
molecule = "C=C[C@H]1CN2CC[C@H]1C[C@H]2[C@H](O)c1ccnc2ccc(OC)cc12.Oc1ccc(C2(c3ccc(O)cc3)c3ccccc3Oc3ccccc32)cc1"
observable = "K+/Na+ ratio"
measured_result = 2.3

[[record]]
molecule = "COc1ccc(CCN(C)CCCC(C#N)(c2ccc(OC)c(OC)c2)C(C)C)cc1OC.Oc1ccc(C2(c3ccc(O)cc3)c3ccccc3Oc3ccccc32)cc1 (stereo not given)"
observable = "K+/Na+ ratio"
measured_result = 3.4

[[record]]
molecule = "C=C[C@H]1CN2CC[C@H]1C[C@H]2[C@H](O)c1ccnc2ccc(OC)cc12.Oc1ccc(C2(c3ccc(O)cc3)c3ccccc3-c3cc(O)ccc32)cc1"
observable = "K+/Na+ ratio"
measured_result = 0.91

